Where these numbers come from: patent US20070190523A1

- subject_of_test: 84V90M (Human immunodeficiency virus type 1 group M subtype B, UniProt P04585, I572V/L578M)
- Type: biochemical, HIV-1
- particulars: 84V90M enzyme; read-out: Enzymatic assay 84V90M IC50/nM

molecule	IC50 [nM]
CCOP(=O)(CCNC(=O)Oc1ccc(CC2C(O)C(O)C(Cc3ccc(OC)cc3)N(Cc3cccc(N)c3)C(=O)N2Cc2cccc(N)c2)cc1)OCC (stereo not shown)	116

====

- Test system: mutant HIV-1 with I84V/L90M mutations
- Assay type: cell-based
- particulars: fold difference in EC50 vs wild type, class symbols

molecule	I84V/L90M fold change
COc1ccc(S(=O)(=O)N(CC(C)C)CC(O)C(Cc2ccc(OCP(=O)(O)O)cc2)NC(=O)OC2COC3OCCC23)cc1 (stereo not drawn) [drawing 602 R1=OH R2=OH]	− (≦3)
CCOC(=O)C(C)NP(=O)(COc1ccc(CC(NC(=O)OC2COC3OCCC23)C(O)CN(CC(C)C)S(=O)(=O)c2ccc(OC)cc2)cc1)OCc1ccccc1 (stereo not drawn) [drawing 608 R1=OBn R2=Ala-Et]	− (≦3)

====

- subject_of_test: WT (Human immunodeficiency virus type 1 group M subtype B)
- assay_details: cell-based
- Parameters: species or system HIV
pEC50: −log10 of the molar value.
measurement_kind: pEC50

molecule	censoring_qualifier	observed_measurement
Nc1n[nH]c2ccc(CN3C(=O)N(Cc4cccc(OCc5ccccc5)c4)C(Cc4ccccc4)C(O)C(O)C3Cc3ccccc3)cc12 (stereo not shown) [m-OBn]	=	6.66
CCOP(=O)(COc1ccc(CC2C(O)C(O)C(Cc3ccc(OC)cc3)N(Cc3cccc(N)c3)C(=O)N2Cc2cccc(N)c2)cc1)OCC (stereo not shown) [OCH3, Ph-mNH2, OCH2PO3Et2]	=	7.20
Nc1n[nH]c2ccc(CN3C(=O)N(Cc4cccc(OCP(=O)(OCc5ccccc5)OCc5ccccc5)c4)C(Cc4ccccc4)C(O)C(O)C3Cc3ccccc3)cc12 (stereo not shown)	=	6.05
CCOP(=O)(COc1ccc(CN2C(=O)N(Cc3ccc4[nH]nc(N)c4c3)C(Cc3ccccc3)C(O)C(O)C2Cc2ccccc2)cc1)OCC (stereo not shown)	=	5.61
Nc1n[nH]c2ccc(CN3C(=O)N(Cc4cccc(O)c4)C(Cc4ccccc4)C(O)C(O)C3Cc3ccccc3)cc12 (stereo not shown) [m-OH]	=	6.82
Nc1n[nH]c2ccc(CN3C(=O)N(Cc4cccc(OCP(=O)(O)O)c4)C(Cc4ccccc4)C(O)C(O)C3Cc3ccccc3)cc12 (stereo not shown) [m-OCH2PO3H2]	<	4.92
CCOP(=O)(CCCNC(=O)c1cccc(CN2C(=O)N(Cc3cccc(N)c3)C(Cc3ccccc3)C(O)C(O)C2Cc2ccccc2)c1)OCC (stereo not shown)	=	6.75

====

- System: 48V54V82S
- assay_details: microbe, parasite or virus in culture
- Design: species or system HIV
- particulars: Human immunodeficiency virus 1, read-out: Cell-based assay (MT-4) EC50/nM 48V54V82S
measurement_kind: EC50 (nM)

compound	observed_measurement
CCOP(=O)(CCCNC(=O)c1cccc(CN2C(=O)N(Cc3ccc(O)cc3)C(Cc3ccccc3)C(O)C(O)C2Cc2ccccc2)c1)OCC (stereo not shown)	75

====

- subject_of_test: recombinant HIV-1 protease (Human immunodeficiency virus type 1 group M subtype B, UniProt P04585)
- assay_details: biochemical
- Type: biochemical
- particulars: read-out: Ki
pKi: −log10 of the molar value.
Items are presented alongside their recorded pKi.
measurement_kind: pKi

compound	measurement_kind	observed_measurement
CCOC(=O)C(C)OP(=O)(Cc1ccc(N(C)CC(NC(=O)OC2COC3OCCC23)C(O)CN(CC(C)C)S(=O)(=O)c2ccc(OC)cc2)cc1)Oc1ccccc1 (centres unmarked)	pKi	10.00 to 11.00
Cc1cccc(C)c1OCC(=O)N[C@@H](Cc1ccc(OCP(=O)(Oc2ccccc2)Oc2ccccc2)cc1)[C@H](O)CN(CC(C)C)S(=O)(=O)c1ccc(N)cc1	pKi	10.00 to 11.00
